ASSAYED_SYSTEM: menin-MLL interaction (Homo sapiens, UniProt O00255)
Sequence (O00255 whole entry): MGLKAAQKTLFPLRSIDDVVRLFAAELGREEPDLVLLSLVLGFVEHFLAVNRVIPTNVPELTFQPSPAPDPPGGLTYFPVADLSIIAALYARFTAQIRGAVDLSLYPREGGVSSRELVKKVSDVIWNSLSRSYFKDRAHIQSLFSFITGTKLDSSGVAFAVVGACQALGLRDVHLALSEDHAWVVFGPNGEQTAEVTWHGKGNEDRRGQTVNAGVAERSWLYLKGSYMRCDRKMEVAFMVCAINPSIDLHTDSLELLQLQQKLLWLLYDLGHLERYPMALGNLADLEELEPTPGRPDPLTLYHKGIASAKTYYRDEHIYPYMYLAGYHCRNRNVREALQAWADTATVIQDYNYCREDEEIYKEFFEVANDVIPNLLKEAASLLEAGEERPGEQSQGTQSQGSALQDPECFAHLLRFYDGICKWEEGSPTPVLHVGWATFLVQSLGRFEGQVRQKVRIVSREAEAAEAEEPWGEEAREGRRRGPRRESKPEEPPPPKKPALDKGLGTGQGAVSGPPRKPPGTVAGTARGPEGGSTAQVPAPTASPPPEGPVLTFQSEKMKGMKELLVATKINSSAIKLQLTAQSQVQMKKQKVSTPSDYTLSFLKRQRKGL
TEST_METHOD_NOTES: Fluorescence polarization (FP) competition assay
CONDITION_CONTEXT: menin / MLL 4-43 peptide
Collected IC50 values appear next to each entry.

C=CC(=O)Nc1ccc(C(Cn2c(C#N)cc3c(C)c(CN4CCC(Nc5ncnc6sc(CC(F)(F)F)cc56)CC4)ccc32)OC)cc1 (stereo not drawn) | 250 to 1000 nM
Cc1c(CN2CCC(Nc3ncnc4sc(CC(F)(F)F)cc34)CC2)ccc2c1cc(C#N)n2CC(C)N1CCC(NS(C)(=O)=O)C1 (stereo not drawn) | 50 to 250 nM

Q) Record Cc1c(CN2CCC(Nc3ncnc4sc(CC(F)(F)F)cc34)CC2)ccc2c1cc(C#N)n2CCN1CCN(C2CCN(S(C)(=O)=O)C2)CC1 (stereo not drawn) : what is its IC50 with menin-MLL interaction (Homo sapiens, UniProt O00255)?
A) 250 to 1000 nM
